Entries and their measured inhibition at 30 µM follow.
ASSAYED_TARGET: 5-Lipoxygenase (crude enzyme preparation from rat basophilic leukemia cells, RBL-1) (Rattus norvegicus)
Construct: crude enzyme preparation from rat basophilic leukemia cells (RBL-1); endogenous in cells; host or cells: rat basophilic leukemia cells (RBL-1)
Sequence (P12527 whole entry): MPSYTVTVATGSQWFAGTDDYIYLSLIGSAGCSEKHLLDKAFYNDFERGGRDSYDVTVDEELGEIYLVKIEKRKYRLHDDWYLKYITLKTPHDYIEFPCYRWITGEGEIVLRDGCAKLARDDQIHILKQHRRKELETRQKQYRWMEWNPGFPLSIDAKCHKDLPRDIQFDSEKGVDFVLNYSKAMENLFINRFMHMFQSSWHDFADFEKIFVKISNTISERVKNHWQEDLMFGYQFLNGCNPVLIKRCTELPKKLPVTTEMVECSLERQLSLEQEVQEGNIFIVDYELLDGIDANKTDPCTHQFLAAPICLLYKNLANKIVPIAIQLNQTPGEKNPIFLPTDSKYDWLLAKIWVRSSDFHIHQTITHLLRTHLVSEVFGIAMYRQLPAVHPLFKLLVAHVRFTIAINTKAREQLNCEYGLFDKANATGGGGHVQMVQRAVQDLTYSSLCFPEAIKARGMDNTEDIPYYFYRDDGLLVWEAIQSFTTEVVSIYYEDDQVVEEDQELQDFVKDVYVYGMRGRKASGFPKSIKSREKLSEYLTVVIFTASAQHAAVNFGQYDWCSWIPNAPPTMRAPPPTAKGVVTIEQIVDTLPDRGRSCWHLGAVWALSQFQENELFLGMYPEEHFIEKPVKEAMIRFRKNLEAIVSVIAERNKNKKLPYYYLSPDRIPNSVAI
METHOD: 5-Lipoxygenase screen (5-LO), 5-HETE by RIA
Type: biochemical
STUDY_CONDITIONS: 30 μM; read-out: 5-LO percent inhibition
Reply numerically in %, unit not repeated.

# example entries with known answers
stdin: Need inhibition at 30 µM of O=C1OC(CCC#Cc2ccccc2)C(O)=C1O (centres unmarked) , thanks.
stdout: 42

stdin: Try this compound too: O=C1OC(CCOc2ccc3oc4ccccc4c3c2)C(O)=C1O (centres unmarked)
stdout: 99

stdin: Could you do the same for O=C1OC(CCSc2cccc3ccccc23)C(O)=C1O (centres unmarked) , please?
stdout: 102

stdin: // same read-out, input: O=C1OC(CCOc2ccc(-c3ccccc3)cc2)C(O)=C1O (centres unmarked)
stdout: 99

stdin: Note, next up: CC1(c2ccc(Cl)cc2)OC(=O)C(O)=C1O (centres unmarked)
stdout: 2

---
stdin: Query (compound): O=C1OC(CCOc2cccc3ccccc23)C(O)=C1O (centres unmarked) ; field requested: inhibition at 30 µM
stdout: 99
